# system: T1, IFN-α4a (human, UniProt P05014 24-189)
# T1 construct: also called IFN-αM1
# assayRemarks: ProteOn, one antigen concentration
quantityName: Kd (nM)
Only the number, expressed in nM, is required.

INSERT INTO measurements (binder, quantityname, datavalue) VALUES
  ('IFWM3314 (antibody, V domains shown, VH IFWH591, VL IFWL1014; converted mAb; also called IFWB3049) VH: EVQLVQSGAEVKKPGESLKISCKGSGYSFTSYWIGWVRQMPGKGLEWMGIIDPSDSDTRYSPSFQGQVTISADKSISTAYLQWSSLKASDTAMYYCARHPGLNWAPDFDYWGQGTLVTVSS VL: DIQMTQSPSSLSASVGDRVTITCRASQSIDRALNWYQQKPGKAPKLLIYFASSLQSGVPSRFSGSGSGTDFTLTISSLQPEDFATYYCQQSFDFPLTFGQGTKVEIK', 'Kd', 0.092),
  ('IFWM3347 (antibody, V domains shown, VH IFWH624, VL IFWL1004; converted mAb; also called IFWB3082) VH: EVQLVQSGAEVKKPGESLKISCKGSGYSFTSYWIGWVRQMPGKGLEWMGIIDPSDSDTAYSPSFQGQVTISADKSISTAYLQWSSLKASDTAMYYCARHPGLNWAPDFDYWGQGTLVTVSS VL: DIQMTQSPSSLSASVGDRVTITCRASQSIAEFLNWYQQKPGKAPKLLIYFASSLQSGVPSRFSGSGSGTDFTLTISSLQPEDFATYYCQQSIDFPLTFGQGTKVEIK', 'Kd', 0.35);

// next entry
[ask] May I ask what Kd has been recorded for IFWM3292 (antibody, V domains shown, VH IFWH624, VL IFWL999; converted mAb; also called IFWB3027) VH: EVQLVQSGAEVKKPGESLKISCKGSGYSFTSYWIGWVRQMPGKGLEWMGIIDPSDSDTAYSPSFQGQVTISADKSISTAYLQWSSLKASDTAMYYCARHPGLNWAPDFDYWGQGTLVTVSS VL: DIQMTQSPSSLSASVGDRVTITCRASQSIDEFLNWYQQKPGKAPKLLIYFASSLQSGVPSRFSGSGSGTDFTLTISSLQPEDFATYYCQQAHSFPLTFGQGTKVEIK ?
[reply] 0.613
